The reported measurements were obtained from PubChem BioAssay.

- system.tested: Botulinum neurotoxin type A (Clostridium botulinum) (UniProt P0DPI0)
- run.description: BoNT/A light chain protease inhibitors, biochemical, multiplex microsphere flow cytometry, validation set (AID 588460)
- experimental.context: at 10 µM, stronger effect = higher value
Record form. Attribute: inhibition. Fill in for each entry.
Please reply with the bare figure in % and do not write the unit itself.

Identify inhibition associated with the compound S=C(NCCOCCOCCNC(=S)Nc1ccccc1)Nc1ccccc1 2

Answer with reported inhibition of COc1ccc2nc(S(=O)Cc3ncc(C)c(OC)c3C)[nH]c2c1 (centres undefined) 1.7

Give inhibition for the following compound: COc1ccc(C(=O)Nc2nc3ccccc3c(=O)[nH]2)cc1 -2.3

Note inhibition for the compound shown: COc1cc(C2C(C(C)=O)=C(O)C(=O)N2c2ccc(C)cc2)ccc1O (centres undefined) 0.2

Return value of inhibition for input CS(=O)(=O)NCc1ccc(C(=O)NCc2ccccc2)cc1 , no commentary. 0.5

Answer with the recorded inhibition of COC(=O)C1[C@H]2C(=O)N(Cc3cccs3)C[C@]23C=C[C@H]1O3 (some centres undefined) only. -0.7

Name the recorded inhibition of the compound listed here: O=C(O)[C@@H](O)c1ccccc1 0

Supply recorded inhibition for C#C[C@]1(O)CC[C@H]2[C@@H]3CCc4cc(OC)ccc4[C@H]3CC[C@@]21C here. 0.4

Provide measured inhibition value, entry: Cc1ncc(C(=O)O)c(C(=O)O)c1N -0.1

###

Please respond with reported inhibition for every item in the list.
- Tested on: Botulinum neurotoxin type F light chain protease (Clostridium botulinum)
- run.description: Botulinum neurotoxin type F light chain protease inhibition, multiplex microsphere flow cytometry, validation set (AID 588459)
- experimental.context: multiplex microsphere protease substrate cleavage assay, at 10 µM, stronger effect = higher value
Hi! Could you send only the number? It should be in %, unit omitted.

Identify inhibition associated with the molecule Cc1cc(O)c(C(C)C)cc1C1(c2cc(C(C)C)c(O)cc2C)OC(=O)c2ccccc21 -0.9

Check the records and state inhibition for O=c1c2ccccc2nc(/C=C/c2ccc3c(c2)OCO3)n1-c1ccccc1 -0.7

Report inhibition for COc1ccc(OCc2cccc(C(=O)NN)c2)cc1 0.1

Indicate the recorded inhibition value for this molecule: CCCC(=O)O[C@]1(C(=O)CCl)[C@@H](C)C[C@H]2[C@@H]3CCC4=CC(=O)C=C[C@]4(C)[C@@]3(F)C(=O)C[C@@]21C 0.9

###

- system.tested: Lethal factor (Bacillus anthracis) (UniProt P15917)
- run.description: Lethal factor protease inhibitors, Bacillus anthracis, multiplex microsphere cleavage assay, validation set (AID 588461)
- experimental.context: flow cytometry, at 10 µM, stronger effect = higher value
metric.name: inhibition (%)
Hi! Could you send only the number? It should be in %, unit omitted.

Lab note: Lethal factor (Bacillus anthracis) (UniProt P15917) assay, enter inhibition for O=C(/C=C/c1ccccc1)/C=C/c1ccccc1 here 1.5

State inhibition on Lethal factor (Bacillus anthracis) (UniProt P15917). Entry: Cn1c2ccc(CC(=O)O)cc2c2cc(CC(=O)O)ccc21 7.2

Give the observed inhibition of CO[C@@]1(NC(=O)Cc2cccs2)C(=O)N2C(C(=O)O)=C(COC(N)=O)CS[C@@H]21 for Lethal factor (Bacillus anthracis) (UniProt P15917). -10

Please report inhibition with Lethal factor (Bacillus anthracis) (UniProt P15917) for item O=C(O)C1Sc2[nH]c(=O)sc2C2c3ccc(O)cc3OC(=O)C12 (configuration not stated) . -16.5

Write inhibition of O=C(COc1ccccc1)N1CCN(c2ccccc2)CC1 ; system used: Lethal factor (Bacillus anthracis) (UniProt P15917) -0.7

Give Lethal factor (Bacillus anthracis) (UniProt P15917) inhibition for the following compound: COC(=O)c1ccc2c(c1)C(=O)/C(=C/c1ccc(O)cc1)O2 -8.5

Print Lethal factor (Bacillus anthracis) (UniProt P15917) inhibition for O=C(c1ccco1)N(CCC(c1ccccc1)c1ccco1)Cc1ccco1 (configuration not stated) . 3.5

State inhibition on Lethal factor (Bacillus anthracis) (UniProt P15917). Entry: CCOC(=O)C(=Cc1ccccc1OC)C(=O)OCC -6.9

Please tell me the measured inhibition for O=C(O)c1cccnc1 ; system: Lethal factor (Bacillus anthracis) (UniProt P15917). 2.5

Report inhibition on Lethal factor (Bacillus anthracis) (UniProt P15917) for this entry: COc1ccc(S(=O)(=O)NCc2ccco2)c2ccccc12 1

Give inhibition only, for CCOc1ccc(CC2c3cc(OCC)c(OCC)cc3CCN2C(=O)CN2CCN(C)CC2)cc1OCC (configuration not stated) , using Lethal factor (Bacillus anthracis) (UniProt P15917) data. 7.9

State recorded inhibition with Lethal factor (Bacillus anthracis) (UniProt P15917), entry N/C(=N\OC(=O)/C=C/c1ccccc1)c1ccc(Br)cc1 , no comment. 2.5
